- experimental_system: L-lactate dehydrogenase (Plasmodium falciparum (isolate CDC / Honduras)) (UniProt Q27743)
- Sequence (Q27743 whole entry, looked up): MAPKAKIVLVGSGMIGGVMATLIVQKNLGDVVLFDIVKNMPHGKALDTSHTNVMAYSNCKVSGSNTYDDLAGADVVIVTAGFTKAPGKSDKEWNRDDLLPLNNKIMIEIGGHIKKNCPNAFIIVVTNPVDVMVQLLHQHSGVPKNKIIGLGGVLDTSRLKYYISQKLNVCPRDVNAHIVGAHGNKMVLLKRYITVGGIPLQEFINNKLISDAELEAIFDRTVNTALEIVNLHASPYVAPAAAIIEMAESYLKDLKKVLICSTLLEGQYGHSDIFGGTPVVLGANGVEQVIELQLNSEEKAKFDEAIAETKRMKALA
- assay_method_text: PfLDH activity inhibition – cell lysate, 3D7 strain, counter-screen for P. falciparum growth inhibition project (AID 2304);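 further: 0% = vehicle and 100% = reference inhibitor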
- condition_info: P. falciparum 3D7 crude extract, LDH APAD/NBT absorbance; at 2 µM; active compounds read high
Hi there, I'd appreciate the recorded inhibition for every entry that follows.
Please respond with the number in % and leave the unit unwritten.

Data request: Can you share its inhibition? I mean this molecule: CC(C)(C)c1cc(NC2CC2)nc(-c2ccccn2)n1
Data returned: -7

Data request: Can you share its inhibition? I mean this molecule: CCc1cn2c3c(cc(C(=O)N[C@@H](Cc4ccccc4)[C@H](O)CNCc4cccc(C)c4)cc13)N(C)S(=O)(=O)CC2
Data returned: 5

Data request: Can you share its inhibition? I mean this molecule: CC(C)Nc1cc(C(=O)N[C@@H](Cc2ccccc2)[C@H](O)CNC2CCCCC2)cc(N2CCCCS2(=O)=O)c1
Data returned: 4

Data request: Can you share its inhibition? I mean this molecule: Cc1cccn2c(=O)c3cc(C(=O)NCc4cccnc4)c(=N)n(CCc4ccccc4)c3nc12
Data returned: -2

Data request: Can you share its inhibition? I mean this molecule: O=C(NCCN1CCOCC1)c1ccc(O)c(-c2cccc(C(F)(F)F)c2)c1
Data returned: 3

Data request: Can you share its inhibition? I mean this molecule: CCCN1CCC=C(c2cccc(Nc3nccc(Nc4cc(OC)ccc4C)n3)c2)C1
Data returned: -1

Data request: Can you share its inhibition? I mean this molecule: O=C(Nc1ccc(-n2ccc(C(F)(F)F)n2)cc1)c1cccs1
Data returned: -6

Data request: Can you share its inhibition? I mean this molecule: COc1cccc(CN2CCCC(OC(c3ccccc3)c3ccccc3)C2)c1O (stereo not drawn)
Data returned: 0

Data request: Can you share its inhibition? I mean this molecule: Cc1cc(C2CCN(CCCCNC(=O)c3ccc(-c4ccc(C#N)cc4)cc3)CC2)c(C)cc1O
Data returned: 3

Data request: Can you share its inhibition? I mean this molecule: CN1CCC(N2CCC(Oc3cccc(C(=O)NCCCC4CCCC4)c3)CC2)CC1
Data returned: -3

Data request: Can you share its inhibition? I mean this molecule: CC(C)(C)C(C)(C)Cc1ccc(O)c(CN2CCN(c3ccccc3)CC2)c1
Data returned: 0

Data request: Can you share its inhibition? I mean this molecule: COc1cc2nc(N3CCC(CNC(=O)c4ccc(-c5ccc(C#N)cc5C)cc4)CC3)nc(N)c2cc1OC
Data returned: -4

Data request: Can you share its inhibition? I mean this molecule: O=C(/C=C/c1ccc(Cl)c(Cl)c1)N1CCC(CCN2CCc3[nH]c4ccccc4c3C2)CC1
Data returned: -3

Data request: Can you share its inhibition? I mean this molecule: Cc1cc2nc(-c3cc(-c4cccc(NS(C)(=O)=O)c4)cnc3N)[nH]c2cc1C
Data returned: -2

Data request: Can you share its inhibition? I mean this molecule: O=C(NCCN1CCCC1)c1ccc(-c2cccc(-c3nc4ccc(F)cc4[nH]3)c2)cc1
Data returned: 1

Data request: Can you share its inhibition? I mean this molecule: O=C(Nc1ccc2nc(-c3ccc4nc(NC(=O)C5CCCCC5)sc4c3)[nH]c2c1)C1CCCCC1
Data returned: -9

Data request: Can you share its inhibition? I mean this molecule: CN(C)CCOc1cc(NC(=O)Nc2ccc(-c3ccccc3)cc2Cl)ccc1I
Data returned: 3

Data request: Can you share its inhibition? I mean this molecule: Cc1ccccc1CNc1noc(-c2c(-c3ccccc3)noc2C)n1
Data returned: -2

Data request: Can you share its inhibition? I mean this molecule: Cc1cnccc1/C=C/c1cccc(OCCN2CCc3ccc(S(C)(=O)=O)cc3CC2)c1
Data returned: -4

Data request: Can you share its inhibition? I mean this molecule: CCNc1cc(C(=O)N[C@@H](Cc2ccccc2)[C@H](O)CNCc2ccc3c(c2)OCCO3)cc(N2CCCCS2(=O)=O)c1
Data returned: -1

Data request: Can you share its inhibition? I mean this molecule: CCCc1cc(Cc2cnc(N)nc2N)cc(CC)c1O
Data returned: -3

Data request: Can you share its inhibition? I mean this molecule: COc1ccc(-c2cccc(NC(=O)c3cccc(Cl)c3)c2)cc1CN1CCCN(C)CC1
Data returned: 6

Data request: Can you share its inhibition? I mean this molecule: COc1c(C2CCN(CCCCNC(=O)c3ccc(-c4ccc(Cl)cc4)c(OCCN(C)C)c3)CC2)ccc2c1CCCC2
Data returned: 2

Data request: Can you share its inhibition? I mean this molecule: COc1ccc2ncc(F)c(CCN3CCC4(CC3)COC(c3cc5c(cn3)OCCO5)=N4)c2n1
Data returned: 5

Data request: Can you share its inhibition? I mean this molecule: O=C(Nc1ccc(Cl)cc1)c1cccc2[nH]c(C(F)(F)F)nc12
Data returned: -6

Data request: Can you share its inhibition? I mean this molecule: Cc1cc2nc(-c3ccc(/C=C/C(=O)NC4CCCCC4)cc3)[nH]c2cc1C
Data returned: 2

Data request: Can you share its inhibition? I mean this molecule: CC(=O)Nc1cccc(CNc2cc(C)nc(Nc3ccc(C)cc3)n2)c1
Data returned: 0

Data request: Can you share its inhibition? I mean this molecule: COc1ccc(C)c(Nc2ccnc(Nc3cccc(-c4nc5ccccc5[nH]4)c3)n2)c1
Data returned: -1

Data request: Can you share its inhibition? I mean this molecule: OC1CCCN(Cc2ccc(-c3cccc(-c4nc5ccccc5[nH]4)c3)cc2)C1 (stereo not drawn)
Data returned: 2

Data request: Can you share its inhibition? I mean this molecule: COc1ccc2nccc([C@@H](O)CN3CCC(NC(=O)c4cccc(C(=O)c5ccccc5)c4)CC3)c2c1
Data returned: 2

Data request: Can you share its inhibition? I mean this molecule: c1cncc(Oc2ccc(Nc3ccnc4cc(-c5cccc(CN6CCCCC6)c5)ccc34)cc2)c1
Data returned: 4

Data request: Can you share its inhibition? I mean this molecule: CN(C)c1cc(C(=O)N[C@@H](Cc2ccccc2)[C@H](O)CNC2CCCCC2)cc2[nH]ccc12
Data returned: 3

Data request: Can you share its inhibition? I mean this molecule: CCC1CN2CCc3c([nH]c4ccc(OC)cc34)[C@@H]2C[C@@H]1CC1NCCc2cc(OC)c(OC)cc21 (stereo partly drawn)
Data returned: -2

Data request: Can you share its inhibition? I mean this molecule: CN(C)c1ccc(-c2ccc(C(=O)NC3CCN(Cc4ccccc4)CC3)s2)cc1
Data returned: -3

Data request: Can you share its inhibition? I mean this molecule: COc1ccc(CN2CCN(C(=O)c3cccs3)CC2)c(O)c1
Data returned: 2

Data request: Can you share its inhibition? I mean this molecule: C[C@H]1CN(Cc2cccc(-c3cc(CNC(=O)c4cccc(CN5CCN(CCOc6ccccc6)CC5)c4)ccc3F)c2)CCN1
Data returned: 4

Data request: Can you share its inhibition? I mean this molecule: O[C@H]1[C@H](OCc2ccc(-c3ccccc3)cc2)CC[C@@H]1N1CCCCC1
Data returned: 9

Data request: Can you share its inhibition? I mean this molecule: COc1cc(Cn2ccc3c4c(N)nc(N)nc4ccc32)cc(OC)c1OC
Data returned: 3
